Quick reference for kinase still bound, per cent of control among some compounds
# assay target: UniProt:Q13555
# Sequence (Q13555 whole entry, looked up): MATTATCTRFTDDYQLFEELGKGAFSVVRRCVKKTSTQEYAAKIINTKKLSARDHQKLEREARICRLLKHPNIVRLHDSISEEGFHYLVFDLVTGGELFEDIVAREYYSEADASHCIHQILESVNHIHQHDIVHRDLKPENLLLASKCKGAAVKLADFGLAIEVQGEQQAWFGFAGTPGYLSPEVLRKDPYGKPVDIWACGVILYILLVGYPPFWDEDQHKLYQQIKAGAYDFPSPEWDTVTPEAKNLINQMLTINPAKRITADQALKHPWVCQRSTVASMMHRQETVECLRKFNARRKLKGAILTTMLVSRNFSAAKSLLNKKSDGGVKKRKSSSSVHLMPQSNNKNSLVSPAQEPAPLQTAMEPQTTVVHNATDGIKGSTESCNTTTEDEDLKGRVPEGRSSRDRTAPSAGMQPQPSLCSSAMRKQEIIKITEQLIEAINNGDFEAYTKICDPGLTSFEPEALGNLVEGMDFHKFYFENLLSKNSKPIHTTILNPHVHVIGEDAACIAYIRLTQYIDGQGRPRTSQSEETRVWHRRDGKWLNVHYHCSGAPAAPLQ
# assay notes: KINOMEscan competition binding
# setup conditions: compound 10.0 µM
Number in %, nothing else.

// returns reported kinase still bound, per cent of control for input `C[C@@H](Oc1cc(-c2cnn(C3CCNCC3)c2)cnc1N)c1c(Cl)ccc(F)c1Cl` 100

// returns reported kinase still bound, per cent of control for input `COc1cc(C(=O)N2CCC(N3CCN(C)CC3)CC2)ccc1Nc1ncc2c(n1)N(C)c1ccccc1C(=O)N2C` 47

// returns reported kinase still bound, per cent of control for input `COc1cc(N2CCN(C)CC2)ccc1Nc1ncc2c(n1)N(C)c1ccccc1C(=O)N2C` 31

// returns reported kinase still bound, per cent of control for input `Cc1n[nH]c2ccc(-c3cncc(OC[C@@H](N)Cc4c[nH]c5ccccc45)c3)cc12` 5.4

// returns reported kinase still bound, per cent of control for input `COc1ccc(N(C(=O)Oc2c(C)cccc2C)c2ccnc(Nc3ccc(N4CCN(C)CC4)cc3)n2)c(OC)c1` 100

// returns reported kinase still bound, per cent of control for input `O=C1NC(=O)/C(=C/c2ccc3nccc(-c4ccncc4)c3c2)S1` 28

// returns reported kinase still bound, per cent of control for input `COc1cc2ncn(-c3cc(OCc4ccccc4C(F)(F)F)c(C(N)=O)s3)c2cc1OC` 83

// returns reported kinase still bound, per cent of control for input `CN(C)C/C=C/C(=O)Nc1ccc(C(=O)Nc2cccc(Nc3nccc(-c4cccnc4)n3)c2)cc1` 76

// returns reported kinase still bound, per cent of control for input `CNC(=O)c1ccc(Nc2cc(Nc3ccccc3S(=O)(=O)C(C)C)c3cc[nH]c3n2)nc1` 100

// returns reported kinase still bound, per cent of control for input `COCC(=O)NC/C=C/c1ccc2ncnc(Nc3ccc(Oc4ccc(C)nc4)c(C)c3)c2c1` 94

// returns reported kinase still bound, per cent of control for input `C=CC(=O)Nc1cc(-n2c(=O)ccc3cnc4ccc(-c5cn[nH]c5)cc4c32)ccc1C` 45

// returns reported kinase still bound, per cent of control for input `CS(=O)(=O)N1CCN(Cc2cc3nc(-c4cccc5[nH]ncc45)nc(N4CCOCC4)c3s2)CC1` 100
